# protocolDetails: DRUGMATRIX: Imidazoline I2, Central radioligand binding (ligand: [3H] Idazoxan)
# Format: cell membranes, Rattus norvegicus, Wistar, Cerebral cortex, Membrane
# conditions: Not Active = under 50% inhibition at 10 µM
recordedMetric: Ki

O=c1cc(-c2ccccc2)oc2ccc3ccccc3c12: Not Active
C[C@H](C(=O)O)c1cccc(C(=O)c2ccccc2)c1: Not Active
CC1=C(CC(=O)O)c2cc(F)ccc2/C1=C\c1ccc(S(C)(=O)=O)cc1: Not Active
CC[C@H](C)C(=O)O[C@H]1C[C@H](O)C=C2C=C[C@H](C)[C@H](CC[C@@H](O)C[C@@H](O)CC(=O)O)[C@H]21: Not Active
COC(=O)c1ccccc1O [METHYL SALICYLATE]: Not Active
COc1cc(CNC(=O)CCCC/C=C/C(C)C)ccc1O: Not Active
CC[C@H](C)C(=O)O[C@H]1C[C@@H](C)C=C2C=C[C@H](C)[C@H](CC[C@@H]3C[C@@H](O)CC(=O)O3)[C@H]21: Not Active

* * *

# targetOfAssay: 5-hydroxytryptamine receptor 6 (Homo sapiens); further: in other assays of this panel Not Active means under 50% inhibition at 10 µM
# Sequence (P50406 whole entry): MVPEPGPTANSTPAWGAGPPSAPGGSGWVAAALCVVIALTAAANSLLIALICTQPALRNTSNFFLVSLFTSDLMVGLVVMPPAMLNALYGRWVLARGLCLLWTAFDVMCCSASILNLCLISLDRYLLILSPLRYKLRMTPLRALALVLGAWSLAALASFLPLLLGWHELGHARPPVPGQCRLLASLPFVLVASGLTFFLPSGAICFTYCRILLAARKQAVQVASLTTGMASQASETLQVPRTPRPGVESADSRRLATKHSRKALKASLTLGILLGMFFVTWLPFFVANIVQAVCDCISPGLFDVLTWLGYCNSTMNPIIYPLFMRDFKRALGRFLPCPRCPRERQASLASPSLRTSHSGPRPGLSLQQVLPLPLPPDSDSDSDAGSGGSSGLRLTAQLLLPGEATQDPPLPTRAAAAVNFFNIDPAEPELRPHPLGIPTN
# Type: cell membranes, HeLa, Membrane
# conditions: read-out: Ki
pKi: −log10 of the molar value.
Each entry gets N if its pKi stays under 7, and Y if its pKi is 7 or above.

CN1C[C@H](C(=O)N[C@]2(C)O[C@@]3(O)[C@@H]4CCCN4C(=O)[C@H](Cc4ccccc4)N3C2=O)C[C@@H]2c3cccc4[nH]cc(c34)C[C@H]21 [DIHYDROERGOTAMINE]: Y
CC(C)C[C@H]1C(=O)N2CCC[C@H]2[C@]2(O)O[C@](NC(=O)[C@@H]3C=C4c5cccc6[nH]c(Br)c(c56)C[C@H]4N(C)C3)(C(C)C)C(=O)N12 [BROMOCRIPTINE]: Y
OCCN1CCN(CCCN2c3ccccc3Sc3ccc(C(F)(F)F)cc32)CC1 [FLUPHENAZINE]: Y
C=C(C)[C@H]1Cc2c(ccc3c2O[C@@H]2COc4cc(OC)c(OC)cc4[C@@H]2C3=O)O1 [ROTENONE]: N

* * *

# targetOfAssay: Cytochrome P450 2A6 (Homo sapiens, UniProt P11509); further: in other assays of this panel Not Active means under 50% inhibition at 10 µM
# Sequence (P11509 whole entry): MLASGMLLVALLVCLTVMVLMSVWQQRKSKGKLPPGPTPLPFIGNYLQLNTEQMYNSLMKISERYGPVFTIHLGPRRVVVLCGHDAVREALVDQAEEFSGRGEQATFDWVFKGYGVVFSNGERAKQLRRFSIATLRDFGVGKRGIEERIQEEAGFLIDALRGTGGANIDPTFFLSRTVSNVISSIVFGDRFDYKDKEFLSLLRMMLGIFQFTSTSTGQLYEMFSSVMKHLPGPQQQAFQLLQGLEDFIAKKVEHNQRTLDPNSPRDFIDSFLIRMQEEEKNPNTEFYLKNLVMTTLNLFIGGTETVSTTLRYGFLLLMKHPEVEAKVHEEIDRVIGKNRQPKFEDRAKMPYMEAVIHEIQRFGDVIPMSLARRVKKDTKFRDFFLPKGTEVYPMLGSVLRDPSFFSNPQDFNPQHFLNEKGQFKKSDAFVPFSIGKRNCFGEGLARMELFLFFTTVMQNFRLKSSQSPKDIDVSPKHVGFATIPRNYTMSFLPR
# conditions: bti-tn-5b1-4
recordedMetric: IC50

CC(C)(C)c1ccc(S(=O)(=O)/C=C/C#N)cc1: Not Active
Clc1cc2c(cc1Cl)Oc1cc(Cl)c(Cl)cc1O2: Not Active
CC(=O)Nc1nnc(S(N)(=O)=O)s1 [ACETAZOLAMIDE]: Not Active
CCn1cc(C(=O)O)c(=O)c2cc(F)c(N3CCNCC3)nc21: Not Active
C=C(CC)C(=O)c1ccc(OCC(=O)O)c(Cl)c1Cl: Not Active
CN(CCOc1ccc(CC2SC(=O)NC2=O)cc1)c1ccccn1 (stereo not drawn): Not Active
CC(C)C[C@H]1C(=O)N2CCC[C@H]2[C@]2(O)O[C@](NC(=O)[C@@H]3C=C4c5cccc6[nH]c(Br)c(c56)C[C@H]4N(C)C3)(C(C)C)C(=O)N12: Not Active
C#C[C@]1(O)CC[C@H]2[C@@H]3CCc4cc(O)ccc4[C@H]3CC[C@@]21C: Not Active

* * *

# protocolDetails: DRUGMATRIX: Glutamate, NMDA, Phencyclidine radioligand binding (ligand: [3H] TCP)
# Type: cell membranes, Rattus norvegicus, Wistar, Cerebral cortex, Membrane
# conditions: Not Active = under 50% inhibition at 10 µM
recordedMetric: IC50

COc1cc(N)nc2[nH]c(-c3ccc(F)cc3)c(-c3ccncc3)c12: Not Active
COc1ccccc1OCC(O)CO (centres undefined) [GUAIFENESIN]: Not Active
CC(C)C[C@H]1C(=O)N2CCC[C@H]2[C@]2(O)O[C@](NC(=O)[C@@H]3C=C4c5cccc6[nH]c(Br)c(c56)C[C@H]4N(C)C3)(C(C)C)C(=O)N12 [BROMOCRIPTINE]: Not Active
CCn1cc(C(=O)O)c(=O)c2cc(F)c(N3CCNCC3)nc21 [ENOXACIN]: Not Active
N=C(N)N/N=C/c1c(Cl)cccc1Cl [GUANABENZ]: Not Active
CCCCC1C(=O)N(c2ccccc2)N(c2ccccc2)C1=O [PHENYLBUTAZONE]: Not Active
C[C@]12CC[C@H]3[C@@H](CCC4=CC(=O)CC[C@@]43C)[C@@H]1CC[C@@H]2O [TESTOSTERONE]: Not Active
CN(C(=O)CCCOc1ccc2[nH]c(=O)ccc2c1)C1CCCCC1 [CILOSTAMIDE]: Not Active
Nn1nnc2ccccc21: Not Active

* * *

# targetOfAssay: Acetylcholinesterase (Homo sapiens, UniProt P22303)
# Sequence (P22303 whole entry): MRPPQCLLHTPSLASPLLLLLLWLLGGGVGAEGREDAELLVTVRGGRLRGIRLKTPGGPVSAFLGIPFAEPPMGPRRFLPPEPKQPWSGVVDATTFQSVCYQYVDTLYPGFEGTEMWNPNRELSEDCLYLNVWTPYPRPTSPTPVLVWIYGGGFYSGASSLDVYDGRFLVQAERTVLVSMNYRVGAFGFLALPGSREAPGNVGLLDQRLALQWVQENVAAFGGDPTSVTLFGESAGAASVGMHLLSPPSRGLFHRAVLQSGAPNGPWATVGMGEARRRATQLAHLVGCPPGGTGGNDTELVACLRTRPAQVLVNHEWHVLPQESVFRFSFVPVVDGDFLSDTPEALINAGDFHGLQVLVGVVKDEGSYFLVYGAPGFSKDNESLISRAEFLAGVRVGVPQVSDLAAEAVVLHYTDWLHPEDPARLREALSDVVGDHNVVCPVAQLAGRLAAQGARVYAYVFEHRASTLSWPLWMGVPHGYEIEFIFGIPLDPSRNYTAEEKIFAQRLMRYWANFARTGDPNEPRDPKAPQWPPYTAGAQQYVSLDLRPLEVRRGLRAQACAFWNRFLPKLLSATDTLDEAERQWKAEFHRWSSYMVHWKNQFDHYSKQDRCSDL
# protocolDetails: DRUGMATRIX: Acetylcholinesterase enzyme inhibition (substrate: acetylthiocholine)
# Assay type: cell-based, HEK293
# conditions: Not Active = under 50% inhibition at 10 µM; read-out: IC50
pIC50: −log10 of the molar value.
recordedMetric: pIC50

CC[C@]1(O)CC[C@H]2[C@@H]3CCC4=CCCC[C@@H]4[C@H]3CC[C@@]21C: 5.19
CNC(=C[N+](=O)[O-])NCCSCc1csc(CN(C)C)n1: 5.25
CC(C)OC(=O)C(C)(C)Oc1ccc(C(=O)c2ccc(Cl)cc2)cc1 [FENOFIBRATE]: 4.81

* * *

# targetOfAssay: Neutrophil elastase (Homo sapiens, UniProt P08246); further: in other assays of this panel Not Active means under 50% inhibition at 10 µM;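 further: inhibition of neutrophil elastase enzyme activity, measured with a p-nitroanilide-linked peptide substrate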
# Sequence (P08246 whole entry): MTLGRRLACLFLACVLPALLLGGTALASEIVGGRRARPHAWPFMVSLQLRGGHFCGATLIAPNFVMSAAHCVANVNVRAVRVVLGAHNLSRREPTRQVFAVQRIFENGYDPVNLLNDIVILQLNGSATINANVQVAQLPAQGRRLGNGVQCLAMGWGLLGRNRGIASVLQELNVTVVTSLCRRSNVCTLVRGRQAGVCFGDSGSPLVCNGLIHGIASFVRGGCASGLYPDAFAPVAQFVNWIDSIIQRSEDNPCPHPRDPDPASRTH
# Type: tissue-based
recordedMetric: IC50

Clc1cc2c(cc1Cl)Oc1cc(Cl)c(Cl)cc1O2 [2,3,7,8-TETRACHLORODIBENZO-P-DIOXIN]: Not Active
CO[C@@]1(NC(=O)CSCC#N)C(=O)N2C(C(=O)O)=C(CSc3nnnn3C)CS[C@@H]21 [CEFMETAZOLE]: Not Active
Nc1nc2c(c(=O)[nH]1)N(C=O)C(CNc1ccc(C(=O)N[C@@H](CCC(=O)O)C(=O)O)cc1)CN2 (stereo partly specified) [LEUCOVORIN]: Not Active
CC(=O)OCC(CCn1cnc2cnc(N)nc21)COC(C)=O [FAMCICLOVIR]: Not Active
CCN[C@@H](C)Cc1cccc(C(F)(F)F)c1 [DEXFENFLURAMINE]: Not Active
C[C@H](C(=O)O)c1cccc(C(=O)c2ccccc2)c1 [DEXKETOPROFEN]: Not Active
CN(CCOc1ccc(CC2SC(=O)NC2=O)cc1)c1ccccn1 (stereo unspecified) [ROSIGLITAZONE]: Not Active
CCOC(=O)[C@H](CCc1ccccc1)N[C@@H](C)C(=O)N1Cc2ccccc2C[C@H]1C(=O)O: Not Active
CC[C@H]1OC(=O)[C@H](C)[C@@H](O[C@H]2C[C@@](C)(OC)[C@@H](O)[C@H](C)O2)[C@H](C)[C@@H](O[C@@H]2O[C@H](C)C[C@H](N(C)C)[C@H]2O)[C@](C)(OC)C[C@@H](C)C(=O)[C@H](C)[C@@H](O)[C@]1(C)O [CLARITHROMYCIN]: Not Active
CCOC(=O)C1=C(C)NC(C)=C(C(=O)OC)C1c1cccc(Cl)c1Cl (stereo unspecified) [FELODIPINE]: Not Active
CN(C(=O)CCCOc1ccc2[nH]c(=O)ccc2c1)C1CCCCC1 [CILOSTAMIDE]: Not Active
CC(CCc1ccc(O)cc1)NCCc1ccc(O)c(O)c1 (stereo unspecified) [DOBUTAMINE]: Not Active
CCn1cc(C(=O)O)c(=O)c2cc(F)c(N3CCNCC3)nc21 [ENOXACIN]: Not Active
O=C(O)c1cc(=O)c2c(OCC(O)COc3cccc4oc(C(=O)O)cc(=O)c34)cccc2o1 [CROMOLYN]: Not Active
Nc1nc(N)nc(NC2CC2)n1 [CYROMAZINE]: Not Active
C[C@@H]1CC[C@H]2[C@@H](C)C(=O)O[C@@H]3O[C@@]4(C)CC[C@@H]1[C@]32OO4 [ARTEMISININ]: Not Active

* * *

# protocolDetails: DRUGMATRIX: Leukotriene, BLT (LTB4) radioligand binding (ligand: [3H]LTB4)
# Assay type: cell membranes, Membrane
# conditions: u-937; Not Active = under 50% inhibition at 10 µM
recordedMetric: IC50

CCC[C@@H]1C[C@@H](C(=O)N[C@@H]([C@H]2O[C@H](SC)[C@H](O)[C@@H](O)[C@H]2O)[C@H](C)Cl)N(C)C1: Not Active
C[C@]12C/C(=C/O)C(=O)C[C@@H]1CC[C@@H]1[C@@H]2CC[C@@]2(C)[C@H]1CC[C@]2(C)O: Not Active
C/C=C\c1ccc(O)c(OC)c1: Not Active
CC(C(=O)O)c1ccc(CC2CCCC2=O)cc1 (stereo not drawn): Not Active
CCOC(=O)C1=C(C)NC(C)=C(C(=O)OC)C1c1cccc(Cl)c1Cl (stereo not drawn): Not Active
CC(C(=O)O)c1ccc(-c2ccccc2)c(F)c1 (stereo not drawn): Not Active
C=C(C)[C@H]1Cc2c(ccc3c2O[C@@H]2COc4cc(OC)c(OC)cc4[C@@H]2C3=O)O1: Not Active
Nc1ccc(S(=O)(=O)Nc2nccs2)cc1: Not Active
